All values here come from paper PMC6331712.

# Tested on: HEP‐G2 cells
# test.protocol: MTT cell viability assay, HEP-G2 cells
# Type: cell-based, human
# measurement.parameters: HEP‐G2 cells; MTT; 24 h exposure

# molecule, test.system, LD50
rows = [
    ("CCOC(=O)Nc1ccc(SCc2cc(OC)cc(OC)c2)nc1N", "HEP‐G2 cells", "134 ± 22 µM"),
    ("CCOC(=O)Nc1ccc(SCc2ccc(-c3ccccc3)cc2)nc1N", "HEP‐G2 cells", ">250 µM"),
    ("CCOC(=O)Nc1ccc([S+]([O-])Cc2ccc(F)cc2)nc1C (stereo not drawn)", "HEP‐G2 cells", ">500 µM"),
    ("CCOC(=O)Nc1ccc([S+]([O-])Cc2ccc(-c3ccccc3)cc2)nc1N (stereo not drawn)", "HEP‐G2 cells", ">63 µM"),
    ("CCOC(=O)Nc1ccc(SCc2ccc(F)cc2)nc1C", "HEP‐G2 cells", ">30 µM"),
    ("CCOC(=O)Nc1ccc(SC(=O)c2ccc(F)cc2)nc1N", "HEP‐G2 cells", ">250 µM"),
    ("Nc1nc([S+]([O-])Cc2ccc(F)cc2)ccc1NC(=O)c1ccc(F)c(F)c1 (stereo not drawn)", "HEP‐G2 cells", ">125 µM"),
    ("CCOC(=O)Nc1ccc(SCc2ccccn2)nc1N", "HEP‐G2 cells", "831 ± 149 µM"),
    ("Nc1nc(SCc2ccc(F)cc2)ccc1NC(=O)c1ccc(F)c(F)c1", "HEP‐G2 cells", "8 ± 3 µM"),
    ("CCOC(=O)Nc1ccc(NCc2ccc(F)cc2)nc1N [Compound 1, Flupirtine, reference compound]", "HEP‐G2 cells", "547 ± 111 µM"),
    ("CCOC(=O)Nc1ccc(SCCN2CCCCC2)nc1N", "HEP‐G2 cells", ">500 µM"),
    ("CNc1nc(SCc2ccccc2)ccc1NC(=O)Cc1cc(F)cc(F)c1", "HEP‐G2 cells", ">10 µM"),
]

###

# Tested on: TAMH cells
# test.protocol: MTT cell viability assay, TAMH cells
# Type: cell-based, mouse
# measurement.parameters: average LD25 (48 h, TAMH) divided by average EC50 (KV7.2/3)
Overview of recorded Tox./Act. (toxicity/activity ratio, safety index) for various molecules
readout.kind: Tox./Act. (toxicity/activity ratio, safety index)

# molecule, test.system, measured.number
rows = [
    ("CCOC(=O)Nc1ccc(NCc2ccc(F)cc2)nc1N [Compound 1, Flupirtine, reference compound]", "TAMH cells", 112),
    ("CNc1nc(SCc2ccccc2)ccc1NC(=O)Cc1cc(F)cc(F)c1", "TAMH cells", 400),
    ("Nc1nc(SCc2ccc(F)cc2)ccc1NC(=O)c1ccc(F)c(F)c1", "TAMH cells", 50),
    ("CCOC(=O)Nc1ccc(SCc2ccc(-c3ccccc3)cc2)nc1N", "TAMH cells", 55),
]

###

Overview of recorded LD50 for various molecules
# Tested on: TAMH cells
# test.protocol: MTT cell viability assay, TAMH cells
# Type: cell-based, mouse
# measurement.parameters: TAMH cells; MTT; 24 h exposure

# molecule, LD50
records = [
    ("CCOC(=O)Nc1ccc(SCc2ccc(F)cc2)nc1C", ">10 µM"),
    ("CCOC(=O)Nc1ccc([S+]([O-])Cc2ccc(F)cc2)nc1C (stereo not drawn)", ">500 µM"),
    ("CNc1nc(SCc2ccccc2)ccc1NC(=O)Cc1cc(F)cc(F)c1", ">7.5 µM"),
    ("CCOC(=O)Nc1ccc(SCc2ccccn2)nc1N", ">1000 µM"),
    ("Nc1nc(SCc2ccc(F)cc2)ccc1NC(=O)c1ccc(F)c(F)c1", ">30 µM"),
    ("CCOC(=O)Nc1ccc([S+]([O-])Cc2ccc(-c3ccccc3)cc2)nc1N (stereo not drawn)", ">63 µM"),
    ("CCOC(=O)Nc1ccc(SCCN2CCCCC2)nc1N", ">500 µM"),
    ("CCOC(=O)Nc1ccc(NCc2ccc(F)cc2)nc1N [Compound 1, Flupirtine, reference compound]", "487 ± 51 µM"),
    ("CCOC(=O)Nc1ccc(SC(=O)c2ccc(F)cc2)nc1N", ">125 µM"),
    ("CCOC(=O)Nc1ccc(SCc2ccc(-c3ccccc3)cc2)nc1N", ">63 µM"),
    ("CCOC(=O)Nc1ccc(SCc2cc(OC)cc(OC)c2)nc1N", ">250 µM"),
    ("Nc1nc([S+]([O-])Cc2ccc(F)cc2)ccc1NC(=O)c1ccc(F)c(F)c1 (stereo not drawn)", ">100 µM"),
]

###

Overview of recorded Emax for various compounds
# test.system: KV7.2/KV7.3 channel (Homo sapiens, UniProt O43525+O43526)
# Sequence (O43525 whole entry): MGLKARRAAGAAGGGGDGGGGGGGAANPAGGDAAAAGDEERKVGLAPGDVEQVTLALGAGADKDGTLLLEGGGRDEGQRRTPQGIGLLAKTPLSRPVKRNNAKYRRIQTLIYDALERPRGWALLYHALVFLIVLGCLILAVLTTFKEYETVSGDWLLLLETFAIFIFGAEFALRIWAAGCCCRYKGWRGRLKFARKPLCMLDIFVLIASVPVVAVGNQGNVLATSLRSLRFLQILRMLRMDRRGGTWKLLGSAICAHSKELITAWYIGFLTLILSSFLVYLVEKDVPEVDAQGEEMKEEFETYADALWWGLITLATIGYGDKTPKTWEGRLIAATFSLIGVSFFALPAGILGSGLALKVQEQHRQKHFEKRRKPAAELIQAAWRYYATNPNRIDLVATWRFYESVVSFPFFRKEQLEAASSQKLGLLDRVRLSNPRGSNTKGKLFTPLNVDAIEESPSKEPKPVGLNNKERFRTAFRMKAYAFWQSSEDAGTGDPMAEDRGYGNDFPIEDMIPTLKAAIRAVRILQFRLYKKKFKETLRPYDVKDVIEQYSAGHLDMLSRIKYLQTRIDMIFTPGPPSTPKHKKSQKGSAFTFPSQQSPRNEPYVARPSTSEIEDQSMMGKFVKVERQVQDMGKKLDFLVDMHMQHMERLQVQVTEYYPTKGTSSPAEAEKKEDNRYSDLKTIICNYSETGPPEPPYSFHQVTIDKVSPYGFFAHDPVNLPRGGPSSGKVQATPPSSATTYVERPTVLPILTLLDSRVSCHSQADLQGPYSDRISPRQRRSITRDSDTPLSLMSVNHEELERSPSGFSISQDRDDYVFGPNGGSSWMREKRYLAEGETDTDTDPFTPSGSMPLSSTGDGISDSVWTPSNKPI
# Sequence (O43526 whole entry): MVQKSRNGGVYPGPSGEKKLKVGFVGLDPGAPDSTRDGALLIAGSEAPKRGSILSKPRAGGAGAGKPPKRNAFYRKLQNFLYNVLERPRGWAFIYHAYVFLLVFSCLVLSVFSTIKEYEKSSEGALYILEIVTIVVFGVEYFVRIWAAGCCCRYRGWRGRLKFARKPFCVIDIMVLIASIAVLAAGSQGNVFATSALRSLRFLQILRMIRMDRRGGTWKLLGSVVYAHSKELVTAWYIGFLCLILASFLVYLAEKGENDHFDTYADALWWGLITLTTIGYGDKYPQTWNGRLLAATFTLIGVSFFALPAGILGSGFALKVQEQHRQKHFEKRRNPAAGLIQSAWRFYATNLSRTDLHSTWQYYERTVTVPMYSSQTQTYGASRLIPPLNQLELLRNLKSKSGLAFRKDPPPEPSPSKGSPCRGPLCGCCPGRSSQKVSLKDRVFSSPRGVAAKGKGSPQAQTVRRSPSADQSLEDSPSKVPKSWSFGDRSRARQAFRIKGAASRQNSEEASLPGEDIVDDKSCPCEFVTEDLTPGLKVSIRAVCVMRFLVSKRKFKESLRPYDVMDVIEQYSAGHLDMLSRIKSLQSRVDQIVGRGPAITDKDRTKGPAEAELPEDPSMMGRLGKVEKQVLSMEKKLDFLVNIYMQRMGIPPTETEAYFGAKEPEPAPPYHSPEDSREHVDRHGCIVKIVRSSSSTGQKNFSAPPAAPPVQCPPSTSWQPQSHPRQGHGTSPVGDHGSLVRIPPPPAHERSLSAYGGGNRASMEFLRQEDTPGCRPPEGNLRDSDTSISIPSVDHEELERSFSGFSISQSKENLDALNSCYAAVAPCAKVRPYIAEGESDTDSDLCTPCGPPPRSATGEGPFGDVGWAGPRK
# Format: cell-based
# measurement.parameters: HEK293

# compound, Emax [%]
records = [
    ("CCOC(=O)Nc1ccc(SCc2ccc(-c3ccccc3)cc2)nc1N [9 b]", 69),
    ("CCOC(=O)Nc1ccc(SCc2ccc(F)cc2)nc1C [9 h]", 129),
    ("Nc1nc(SCc2ccc(F)cc2)ccc1NC(=O)c1ccc(F)c(F)c1 [9 a]", 100),
    ("CCOC(=O)Nc1ccc(NCc2ccc(F)cc2)nc1N [Compound 1, Flupirtine, reference compound]", 100),
    ("CNc1nc(SCc2ccccc2)ccc1NC(=O)Cc1cc(F)cc(F)c1 [9 g]", 147),
]

###

Overview of recorded chromatographic logD for various molecules
# test.protocol: LogD7.4 determination from HPLC retention times with calibration curve
# Format: physicochemical
# measurement.parameters: pH 7.4
readout.kind: chromatographic logD

# molecule, result
data = [
    ("CCOC(=O)Nc1ccc(SCc2ccc(F)cc2)nc1C [9 h]", 3.85),
    ("Nc1nc(SCc2ccc(F)cc2)ccc1NC(=O)c1ccc(F)c(F)c1 [9 a]", 3.9),
    ("Nc1nc([S+]([O-])Cc2ccc(F)cc2)ccc1NC(=O)c1ccc(F)c(F)c1 (stereo not shown) [10 a]", 3.24),
    ("CCOC(=O)Nc1ccc(SC(=O)c2ccc(F)cc2)nc1N [9 e]", 3),
]

###

Overview of recorded Anodic peak potential E pa for various compounds
# test.protocol: Anodic peak potential by cyclic voltammetry
# Format: physicochemical
# measurement.parameters: 1.0 mM compound in 100 mM TRIS‐buffer (pH 7.4)

# compound, endpoint.unit, Anodic peak potential E pa
rows = [
    ("CCOC(=O)Nc1ccc(SCc2ccc(F)cc2)nc1C [9 h]", "mV", 855),
    ("Nc1nc([S+]([O-])Cc2ccc(F)cc2)ccc1NC(=O)c1ccc(F)c(F)c1 (stereo not drawn) [10 a]", "mV", 628),
    ("CCOC(=O)Nc1ccc(NCc2ccc(F)cc2)nc1N [Compound 1, Flupirtine, reference compound]", "mV", 350),
    ("CNc1nc(SCc2ccccc2)ccc1NC(=O)Cc1cc(F)cc(F)c1 [9 g]", "mV", 631),
    ("CCOC(=O)Nc1ccc(SCCN2CCCCC2)nc1N [9 f]", "mV", 573),
    ("CCOC(=O)Nc1ccc(SC(=O)c2ccc(F)cc2)nc1N [9 e]", "mV", 573),
    ("CCOC(=O)Nc1ccc(SCc2cc(OC)cc(OC)c2)nc1N [9 c]", "mV", 450),
    ("CCOC(=O)Nc1ccc(SCc2ccccn2)nc1N [9 d]", "mV", 499),
]
